- System: Pseudomonas aeruginosa
- assay.procedure: In vitro antibacterial activity against Pseudomonas aeruginosa E-2
- Format: functional
- condition.description: Pseudomonas aeruginosa; read-out: MIC
Give measured MIC for each item. Keep answers brief.
# unit: µg/mL | format: bare number

Lookup: Quick one: MIC of CN1CCN(c2cc3c(cc2Cl)c(=O)c(C(=O)O)c2n3CS2)CC1 ?
Found: 1.56

Lookup: Quick one: MIC of CC1Sc2c(C(=O)O)c(=O)c3cc(F)c(N4CCN(Cc5ccc(N)cc5)CC4)cc3n21 (configuration not stated) ?
Found: 3.13

Lookup: Quick one: MIC of CC1Sc2c(C(=O)O)c(=O)c3cc(F)c(N4CCCC4)cc3n21 (configuration not stated) ?
Found: 0.39

Lookup: Quick one: MIC of O=C(O)c1cn(C2CC2)c2cc(N3CCNCC3)c(F)cc2c1=O ?
Found: 0.2

Lookup: Quick one: MIC of CC1COc2c(N3CCN(C)CC3)c(F)cc3c(=O)c(C(=O)O)cn1c23 (configuration not stated) ?
Found: 1.56

Lookup: Quick one: MIC of CC1Sc2c(C(=O)O)c(=O)c3cc(Cl)c(N4CCNCC4)cc3n21 (configuration not stated) ?
Found: 1.56

Provenance of the data: ChEMBL document CHEMBL1125554
